- Tested on: MCC-13
- procedure-text: qHTS assay to identify novel small-molecules to repurpose for Merkel cell carcinoma treatment (AID 1296009); further: nearly all actives have a fitted effect of over 60% in size
- settings: MCC and control cell lines, CellTiter-Glo viability, 72 h; series mostly up to 46 µM
Inconclusive results are not listed. Active and inactive are the calls of the source. The call rests on the fitted dose curve; in most records, active means well fitted inhibition curve with a large enough effect; inconclusive means small, poorly fitted or top-dose-only effect; inactive means flat fitted curve, though single readings scatter.
Lab note: assign the record to one of active, inactive

Worked examples, 5 compounds total:
compound: CC[C@@H]1C=C(C)C[C@H](C)C[C@H](OC)[C@H]2O[C@@](O)(C(=O)C(=O)N3CCCC[C@@H]3C(=O)O[C@H](C(C)=C[C@@H]3CC[C@H](Cl)[C@H](OC)C3)[C@H](C)[C@@H](O)CC1=O)[C@H](C)C[C@H]2OC
qualitative-label: inactive
--
compound: COc1cc2c(cc1OC)CN(CCc1ccc(NC(=O)c3cc(OC)c(OC)cc3NC(=O)c3cnc4ccccc4c3)cc1)CC2
qualitative-label: inactive
--
compound: Cc1ccc(Nc2cc(-c3cccc(N4C(=O)c5ccccc5C4=O)c3)ncn2)cc1NS(C)(=O)=O
qualitative-label: inactive
--
compound: CCCCCCCCCCCC1=C(O)C(=O)C=C(O)C1=O
qualitative-label: inactive
--
compound: C[C@]12CCC3c4ccc(O)cc4CCC3C1CCC2=O (stereo partly drawn)
qualitative-label: inactive

INPUT: Assay outcome for COc1cc2nc(-c3ccc(N4CCN(C)CC4)cc3)nc(NCCN3CCOCC3)c2cc1OC : what was it?
OUTPUT: active

INPUT: Assay outcome for Cc1ccc(C(=O)Nc2cccc(C(F)(F)F)c2)cc1Nc1nc(-c2cccnc2)nc2c1cnn2C : what was it?
OUTPUT: inactive

INPUT: Assay outcome for NC(CO)(CO)CCc1ccc(Sc2cccc(OCc3ccccc3)c2)cc1Cl : what was it?
OUTPUT: inactive

INPUT: Assay outcome for CC1(C)S[C@H]2[C@H](NC(=O)[C@@H](N)c3ccc(O)cc3)C(=O)N2[C@@H]1C(=O)O : what was it?
OUTPUT: inactive

INPUT: Assay outcome for O=C(OCC#CCSc1nnc(-c2cccc3ccccc23)o1)c1cc2ccccc2s1 : what was it?
OUTPUT: inactive

* * *

- procedure-text: qHTS of pediatric cancer cell lines to identify multiple opportunities for drug repurposing: Primary screen for DAOY cells (AID 1347090); further: nearly all actives have a fitted effect of over 55% in size
- settings: DAOY medulloblastoma viability, CellTiter-Glo luminescence, 48 h; series mostly up to 46 µM
Results filed as inconclusive are left out. Active and inactive are the calls of the source. Calls follow the shape of the dose curve; as a rule, active = well fitted cell-killing curve with a large enough effect; inconclusive = small, poorly fitted or top-dose-only effect; inactive = flat fitted curve, though single readings scatter.
Lab note: assign the record to one of active, inactive

Worked examples, 4 compounds total:
chemical-smiles: CC(=O)c1ccc(S(=O)(=O)NC(=O)NC2CCCCC2)cc1
qualitative-label: inactive
//
chemical-smiles: CN[C@@H](C)C(=O)N[C@H]1CN(C(=O)CC(C)C)CC[C@H]2CC[C@@H](C(=O)NC(c3ccccc3)c3ccccc3)N2C1=O
qualitative-label: active
//
chemical-smiles: OC[C@@H](O)[C@H](O)[C@H](O)[C@@H](O)CO
qualitative-label: inactive
//
chemical-smiles: O=C(CCN1CCN(C(=O)OCc2cc(Cl)cc(Cl)c2)CC1)c1ccc2[nH]c(=O)oc2c1
qualitative-label: inactive

Here is another compound to look at.
INPUT: Assay outcome for CCN(CC)CCOC(=O)c1ccc(N)cc1 : what was it?
OUTPUT: inactive

* * *

- procedure-text: qHTS of pediatric cancer cell lines to identify multiple opportunities for drug repurposing: Primary screen for OHS-50 cells (AID 1347103); further: nearly all actives have a fitted effect of over 40% in size
- settings: OHS-50 osteosarcoma viability, CellTiter-Glo luminescence, 48 h; series mostly up to 57.3 µM
Inconclusive results are not listed. Calls of active or inactive are those of the source. The call rests on the fitted dose curve; in most records, active means well fitted cell-killing curve with a large enough effect; inconclusive means small, poorly fitted or top-dose-only effect; inactive means no such curve, though single readings can be large or run the other way.
Lab note: assign the record to one of true (1) = active, false (0) = inactive

Worked examples, 5 compounds total:
compound: COc1ccc(-c2coc3cc(O)ccc3c2=O)cc1
qualitative-label: false (0)

compound: OC[C@H]1O[C@@H](n2cnc3c2NC=NC[C@@H]3O)C[C@H]1O
qualitative-label: false (0)

compound: NC(=O)NN=Cc1ccc([N+](=O)[O-])o1
qualitative-label: false (0)

compound: CCc1ccc(OCc2ccccc2C(=O)Nc2ccc3nc(C)cc(N)c3c2)cc1
qualitative-label: true (1)

compound: CC(=O)CCCCn1c(=O)c2c(ncn2C)n(C)c1=O
qualitative-label: false (0)

INPUT: Assay outcome for C[C@H](NC(=O)c1sccc1OCc1ccc(Cl)cc1)c1ccccc1 : what was it?
OUTPUT: true (1)

INPUT: Assay outcome for CCN(CC)C(=O)c1ccc(O)c(OC)c1 : what was it?
OUTPUT: false (0)
